tested on: HPPD polypeptides; assay: coupled HPPD activity assay: turnover and residual turnover in crude extracts; type: biochemical, Pseudomonas fluorescens; conditions: presence of 100 μM Cmpd. 1; high substrate concentration; changes in absorbance (OD) at 320 nm
Catalogue of Residual turnover readings, one per entry.
Keep the answer to the number alone.

As a guide, the following entries are already answered.
[
  {
    "molecule": "8 (protein, mutant HPPD polypeptide) MADLYENPMGLMGFEFIEFASPTPGTLEPIFEIMGFTKVATHRSKNVHLYRQGEINLILNNEPNSIASYFAAEHGPSVCGMAFRVKDSQKAYNRALELGAQPIHIDTGPMELNLPAIKGIGGAPLYLIDRFGEGSSIYDIDFVYLEGVERNPVGAGLKVIDHLTHNVYRGRMVYWANFYEKLFNFREARYFDIKGEYTGLTSKAMSAPDGMIRIPLNEESSKGAGQIEEFLMQFNGEGIQHVAFLTDDLVKTWDALKKIGMRFMTAPPDNYYEMLEGRLPDHGEPVDQLQARGILLDGSSVEGDKRLLLQIFSETLMGPVFFEFIQRKGDDGFGPDSFKVLFESIERDQVRRGVLTAD",
    "Residual turnover": 0.054
  },
  {
    "molecule": "69 (protein, mutant HPPD polypeptide) MADLYENPMGLMGFEFIEFASPTPGTLEPIFEIMGFTKVATHRSKNVHLYRQGEINLILNNEPNSIASYFAAEHGPSVCGMAFRVKDSQKAYNRALELGAQPIHIDTGPMELNLPAIKGIGGAPLYLIDRFGEGSSIYDIDFVYLEGVERNPVGAGLKVIDHLTHNVYRGRMVYWANFYEKLFNFREARYFDIKGEYTGLTSKAMSAPDGMIRIPLNEESSKGAGQIEEFLMQFNGEGIQHVAFLTDDLVKTWDALKKIGMRFMTAPADSYYEMLEGRLPDHGEPVDQLQARGILLDGSSVEGDKRLLLQIFSERLMGPVFFEFIQRKGDDGFGPHSFKVLFEQMERDQVRRGVLTAD",
    "Residual turnover": 0.237
  },
  {
    "molecule": "4 (protein, mutant HPPD polypeptide) MADLYENPMGLMGFEFIEFASPTPGTLEPIFEIMGFTKVATHRSKNVHLYRQGEINLILNNEPNSIASYFAAEHGPSVCGMAFRVKDSQKAYNRALELGAQPIHIDTGPMELNLPAIKGIGGAPLYLIDRFGEGSSIYDIDFVYLEGVERNPVGAGLKVIDHLTHNVYRGRMVYWANFYEKLFNFREARYFDIKGEYTGLTSKAMSAPDGMIRIPLNEESSKGAGQIEEFLMQFNGEGIQHVAFLTDDLVKTWDALKKIGMRFMTAPGDTYYEMLEGRLPDHGEPVDQLQARGILLDGSSVEGDKRLLLQIFSETLMGPVFFEFIQRKGDDGFGPDSFKVLFESIERDQVRRGVLTAD",
    "Residual turnover": 0.055
  }
]

In: Query (molecule): 36 (protein, mutant HPPD polypeptide) MADLYENPMGLMGFEFIEFASPTPGTLEPIFEIMGFTKVATHRSKNVHLYRQGEINLILNNEPNSIASYFAAEHGPSVCGMAFRVKDSQKAYNRALELGAQPIHIDTGPMELNLPAIKGIGGAPLYLIDRFGEGSSIYDIDFVYLEGVERNPVGAGLKVIDHLTHNVYRGRMVYWANFYEKLFNFREARYFDIKGEYTGLTSKAMSAPDGMIRIPLNEESSKGAGQIEEFLMQFNGEGIQHVAFLTDDLVKTWDALKKIGMRFMTAPRDNYYEMLEGRLPDHGEPVDQLQARGILLDGSSVEGDKRLLLQIFSETLMGPVFFEFIQRKGDDGFGPHSFKVLFESVERDQVRRGVLTAD ; field requested: Residual turnover
Out: 0.066
